# run description: NCI Yeast Anticancer Drug Screen. Data for the cln2 rad14 strain (AID 165);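 further: 0% = growth equal to vehicle treated cultures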
# conditions used: S. cerevisiae cln2 rad14 strain, at 50.0 µM, active compounds read high
This is part of a sample that, as a whole, favours compounds with a hit. Of some 79,000 tested, about 15% had one in any assay.
Below, each entry is listed alongside its reported growth inhibition.

[
  {
    "compound": "Oc1ccc2c(c1)Cc1ccccc1-2",
    "growth inhibition [%]": 88.3
  },
  {
    "compound": "CC(=O)OCC1OC(OC2CCCc3c(O)c4c(c(O)c32)C(=O)c2ccccc2C4=O)C(OC(C)=O)C(OC(C)=O)C1OC(C)=O (centres undefined)",
    "growth inhibition [%]": 28.9
  },
  {
    "compound": "Cc1ccc2c(c1)C(O)(c1ccccc1)C(c1ccccc1)C(c1ccccc1)O2 (centres undefined)",
    "growth inhibition [%]": 90.4
  },
  {
    "compound": "Cc1nc(N)nc(-c2ccccc2)c1N=Nc1ccc(Cl)cc1",
    "growth inhibition [%]": 51.3
  }
]

* * *

# run description: NCI Yeast Anticancer Drug Screen. Data for the sgs1 mgt1 strain (AID 161);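 further: 0% = growth of cultures given vehicle only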
# conditions used: S. cerevisiae sgs1 mgt1 strain, at 5.0 µM (retest, dose inferred, filed as 0.5), active compounds read high
About 79,000 compounds went through this panel and 15% of them were active in at least one assay; those are over-represented in the sample as a whole.
growth inhibition below 20% gives 0.0; growth inhibition at or above it gives 1.0.

[
  {
    "molecule": "O=[N+]([O-])c1ccc(Sc2c3ccccc3nc3ccccc23)nc1",
    "assigned class": 1.0
  },
  {
    "molecule": "Cc1cc([N+](=O)[O-])cc(C)[n+]1[O-]",
    "assigned class": 0.0
  },
  {
    "molecule": "O=C(O)C1C(Br)(c2ccccc2)C1(Br)c1ccccc1 (stereo unspecified)",
    "assigned class": 0.0
  },
  {
    "molecule": "O=C1CN=C(c2ccccc2)N(c2ccccc2)N1",
    "assigned class": 0.0
  },
  {
    "molecule": "CN1C(=O)C23SSC1(C)C(=O)N2c1ccccc1C3(C)C (stereo unspecified)",
    "assigned class": 1.0
  },
  {
    "molecule": "CC(=O)Oc1ccc(-c2ccccc2)cc1Br",
    "assigned class": 0.0
  }
]

* * *

# run description: NCI Yeast Anticancer Drug Screen. Data for the mec2-1 strain (AID 157)
# conditions used: S. cerevisiae mec2-1 strain, at 50.0 µM, active compounds read high
About 79,000 compounds went through this panel and 15% of them were active in at least one assay; those are over-represented in the sample as a whole. Calls of active or inactive are those of the source. Rule as the data show it: active = growth inhibition above about 70%; inactive = the rest.
Measured growth inhibition of individual entries
endpoint name: growth inhibition

[
  {
    "molecule": "CC(=O)OC(CCl)C(C)[N+](=O)[O-] (stereo not drawn)",
    "result value": "98.5% (active)"
  },
  {
    "molecule": "CC1OC(OP(=O)(OCc2ccccc2)OCc2ccccc2)C(OC(=O)c2ccccc2)C(OC(=O)c2ccccc2)C1I (stereo not drawn)",
    "result value": "90.6% (active)"
  },
  {
    "molecule": "Cc1cc2c(cc1S(=O)(=O)O)C1C(C3C2C2(Cl)C(Cl)=C(Cl)C3(Cl)C2(Cl)Cl)C2(Cl)C(Cl)=C(Cl)C1(Cl)C2(Cl)Cl (stereo not drawn)",
    "result value": "74.4% (active)"
  },
  {
    "molecule": "Cc1cc(NS(=O)(=O)c2ccc(NCc3c4ccccc4nc4cc(Cl)ccc34)cc2)no1",
    "result value": "98.5% (active)"
  },
  {
    "molecule": "O=C1c2ccccc2C(=O)c2sc(Nc3ccccc3C(F)(F)F)nc21",
    "result value": "92.1% (active)"
  },
  {
    "molecule": "CC12CCC(O)CC1=CCC1C2CCC2(C)C(NC(=O)C(Cc3ccc(O)cc3)NC(=O)OCc3ccccc3)CCC12 (stereo not drawn)",
    "result value": "2.95% (inactive)"
  },
  {
    "molecule": "O=Cc1ccc(O)cc1O",
    "result value": "29.6% (inactive)"
  },
  {
    "molecule": "CC(=O)Nc1ccc2c(ccc3cccc[n+]32)c1",
    "result value": "97.2% (active)"
  },
  {
    "molecule": "CCCCCCCCCCCCOC(=O)C[N+]1(C)CCCCC1",
    "result value": "99.8% (active)"
  },
  {
    "molecule": "CCC(C)N(C(=O)c1ccccc1)c1ccccc1 (stereo not drawn)",
    "result value": "6.15% (inactive)"
  },
  {
    "molecule": "C(=N\\NC1=NCCN1)/c1cccc2cc3ccncc3nc12",
    "result value": "91% (active)"
  },
  {
    "molecule": "CC(=O)OCC1CC2OC2CC1C (stereo not drawn)",
    "result value": "50.1% (inactive)"
  },
  {
    "molecule": "O=C1Oc2ccccc2C(=O)/C1=C/N1C(=O)/C(=C/c2ccc3c(c2)OCO3)SC1=S",
    "result value": "47.8% (inactive)"
  },
  {
    "molecule": "CC12OC(=O)C(C(N)=O)=C1C=C(c1ccccc1)CC2c1ccccc1 (stereo not drawn)",
    "result value": "43.9% (inactive)"
  },
  {
    "molecule": "Cc1ccc(S(=O)(=O)OCC(/C=N/NC(N)=O)OCOC(C)/C=N/NC(N)=O)cc1 (stereo not drawn)",
    "result value": "99.2% (active)"
  },
  {
    "molecule": "c1ccc(C(CNCCN2CCCCCC2)C2CCCCC2)cc1 (stereo not drawn)",
    "result value": "44.6% (inactive)"
  },
  {
    "molecule": "CCOC(=O)CC1=NC(=Nc2cc(Cl)ccc2Cl)SC1",
    "result value": "40.8% (inactive)"
  },
  {
    "molecule": "CC(=O)NNc1ccc(Cl)cc1[N+](=O)[O-]",
    "result value": "25.3% (inactive)"
  },
  {
    "molecule": "O=c1ncccn1[C@@H]1O[C@H](CO)[C@H](O)C1O (stereo partly drawn)",
    "result value": "28.4% (inactive)"
  },
  {
    "molecule": "Cc1c(O)c(Br)c(Br)c(Br)c1Br",
    "result value": "87.1% (active)"
  },
  {
    "molecule": "CCOC(=O)C1C(c2cccc(OC)c2O)c2cc3c(cc2OC1(C)N1CCCC1)OCO3 (stereo not drawn)",
    "result value": "16.4% (inactive)"
  },
  {
    "molecule": "O=C1c2ccccc2C(=O)c2sc(Nc3ccc(Cl)c(Cl)c3)nc21",
    "result value": "92.8% (active)"
  },
  {
    "molecule": "COc1ccc(C2C(C#N)(C#N)C2(C#N)C#N)cc1",
    "result value": "96.5% (active)"
  },
  {
    "molecule": "c1nc2nc(N3CCOCC3)nc(N3CCCCC3)c2[nH]1",
    "result value": "3.25% (inactive)"
  },
  {
    "molecule": "S=C1NC2=C(CSC/C2=C\\c2ccccc2)C(c2ccccc2)N1 (stereo not drawn)",
    "result value": "58.2% (inactive)"
  },
  {
    "molecule": "COc1ccccc1NC(=O)C1=C(C)NC(C)=C(C(=O)Nc2ccccc2OC)C1c1ccc(OC)c(OC)c1",
    "result value": "26.6% (inactive)"
  },
  {
    "molecule": "c1ccc2c(c1)N=c1ccccc1=P21c2ccccc2Nc2ccccc21",
    "result value": "90.9% (active)"
  },
  {
    "molecule": "CCOC(=O)c1c(NC(=O)CBr)sc(C)c1C",
    "result value": "7.8% (inactive)"
  },
  {
    "molecule": "Oc1cc(Br)cc2cc(Br)cnc12",
    "result value": "89.5% (active)"
  },
  {
    "molecule": "ClC1c2ccccc2Cc2cccnc21 (stereo not drawn)",
    "result value": "11.8% (inactive)"
  },
  {
    "molecule": "O=C(CC1(O)C(=O)Nc2c(Cl)cccc21)c1ccc(Cl)cc1 (stereo not drawn)",
    "result value": "20.8% (inactive)"
  },
  {
    "molecule": "O=C(/C(=C/c1ccc2c(c1)OCO2)c1ccccc1)c1ccc(OCCN2CCCC2)cc1",
    "result value": "58.5% (inactive)"
  },
  {
    "molecule": "C1CNC(CCNCCSCCNCCC2=NCCN2)=N1",
    "result value": "84.2% (active)"
  }
]

* * *

# run description: NCI Yeast Anticancer Drug Screen. Data for the sgs1 mgt1 strain (AID 161);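 further: 0% = growth of cultures given vehicle only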
# conditions used: S. cerevisiae sgs1 mgt1 strain, at 50.0 µM (retest, dose inferred, filed as 5.0)
This is part of a sample that, as a whole, favours compounds with a hit. Of some 79,000 tested, about 15% had one in any assay. Calls of active or inactive are those of the source. Rule as the data show it: active = growth inhibition above about 70%; inactive = the rest.
Classes used: yes for active, no for inactive

[
  {
    "compound": "C(=C\\c1ccc(-[n+]2nc(-c3ccccc3)nn2-c2ccccc2)cc1)/c1ccccc1",
    "assigned class": "yes"
  },
  {
    "compound": "NCCc1ccc2oc3cc(=O)c4ccccc4c-3nc2c1",
    "assigned class": "no"
  },
  {
    "compound": "CCOC(=O)CC1=NC(=Nc2ccc(Cl)c(Cl)c2)SC1",
    "assigned class": "yes"
  },
  {
    "compound": "O=C1c2cccc(NCCNCCO)c2C(=O)c2cccc(NCCNCCO)c21",
    "assigned class": "no"
  },
  {
    "compound": "COC1=CC2=CCC3C(CCC4(C)C(C(C)=O)CCC34)C2(C)CC1 (configuration not stated)",
    "assigned class": "no"
  },
  {
    "compound": "CC(=O)c1c(O)c2cccc3c2n(c1=O)CCC3",
    "assigned class": "yes"
  },
  {
    "compound": "N#Cc1sc2c(c1OC(=O)c1ccc(Cl)cc1)c(=O)n(-c1ccccc1)c(=S)n2-c1ccccc1",
    "assigned class": "no"
  }
]
